assay: Henry solubility constant Hcp at 303 K (mol/(m3 Pa)); details: reference: Hovorka et al. (2002)
READOUT: Henry solubility constant Hcp at 303 K
One number for each entry.

# annotated cases, reported Henry solubility constant Hcp at 303 K shown
compound="COCCOC(C)=O [2-methoxyethyl ethanoate]" readout="Henry solubility constant Hcp at 303 K" value=3
compound="CCOCCOC(C)=O [2-ethoxyethyl ethanoate]" readout="Henry solubility constant Hcp at 303 K" value=3
compound="C=CC#N [2-propenenitrile]" readout="Henry solubility constant Hcp at 303 K" value=0.076

Look up Henry solubility constant Hcp at 303 K for the entries below, preserving their order.
1. COCC(=O)OC [methyl methoxyacetate]
2. COC(=O)CC(C)=O [3-oxobutanoic acid, methyl ester]

1: 2.5; 2: 6.4

###

assay: Henry solubility constant Hcp at 298.15 K (mol/(m3 Pa)); settings: reference: Hovorka et al. (2002)
Outcome: 1 for Henry solubility constant Hcp of at least 0.7; -1 for anything lower.

molecule=CC#N qualitative_label=-1
molecule=CC(C)CO qualitative_label=-1
molecule=OC1CCCC1 qualitative_label=1
molecule=O=C1CCCCC1 qualitative_label=1
molecule=O=C1CCCC1 qualitative_label=1

Henry solubility constant Hcp >= 0.7 for COC(C)=O [methyl ethanoate] ?
-1
